Molecular target: T1, tau oligomers (SynAging) (UniProt P10636-8 1-441, limits assumed)
T1 construct: also called misfolded oligomeric tau polypeptide
T1 sequence (P10636 other isoform, or with tags, fused parts or gaps limits assumed): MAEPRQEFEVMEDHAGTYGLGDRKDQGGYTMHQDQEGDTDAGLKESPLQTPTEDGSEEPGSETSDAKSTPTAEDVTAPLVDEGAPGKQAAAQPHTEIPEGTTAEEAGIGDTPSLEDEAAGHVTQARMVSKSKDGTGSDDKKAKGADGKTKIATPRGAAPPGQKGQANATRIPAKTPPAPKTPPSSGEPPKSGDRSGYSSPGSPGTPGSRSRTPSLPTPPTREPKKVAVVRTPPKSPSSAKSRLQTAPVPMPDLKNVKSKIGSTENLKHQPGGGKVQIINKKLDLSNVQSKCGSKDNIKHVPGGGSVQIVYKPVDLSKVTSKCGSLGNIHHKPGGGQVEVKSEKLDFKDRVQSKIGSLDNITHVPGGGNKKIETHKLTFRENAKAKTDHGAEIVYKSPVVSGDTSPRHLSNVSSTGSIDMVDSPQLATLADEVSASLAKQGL
Assay: SPR, oligomer RU / monomer RU (reference: tau monomers)
Provide the reported Ratio (O/M) of each item.
Numbers only.

binder	Ratio (O/M)
Ab3 (clone 2C7) (antibody, V domains shown, tested as hybridoma supernatant; kappa light chain) VH: QVTLKESGPGILKPSQTLSLTCSFSGFSLSTSGMGVGWIRQPSGKGLEWLAHIWWDDDKYYNPSLKNRLTISKDTSRNQVFLKITSVDTADTATYYCVRSIYYYDSSPYYYVMDYWGQGTSVTVSS VL: DIVMTQSHKFMSTSVGDRVSITCKASQDVSIAVAWYQQKPGQSPKLLIYSASYRNTGVPDRFTGSGSGTDFTFTISSVQAEDLAVYYCQQHYSSPLTFGAGTKLELK	1.3

Please report the recorded Ratio (O/M) for Ab14 (clone 10D4) (antibody, V domains shown, tested as hybridoma supernatant; kappa light chain) VH: DVQLQESGPGLVKPSQSLSLTCTVTGFSITSDYAWNWIRQFPGNKLEWMGFIRYSGNTRFNPSLKGRGSITRDTSKNQFFLQLNSVTTEDTATYYCASTLEDSYWYFDVWGAGTTVTVSS VL: DVLMTQTPLSLPVSLGDQASISCRSSQSIVHTNGNTYLEWYLQKPGQSPKLLIYKVSNRFSGVPDRFSGSGSGTDFTLKISRVEAEDLGVYYCFQGSHVPLTFGAGTKLELK .
2.6
